# ASSAYED_TARGET: human recombinant GABAA α5β3γ2 receptor (Homo sapiens (Human), UniProt P18507+P31644)
# Sequence (P31644 32-462): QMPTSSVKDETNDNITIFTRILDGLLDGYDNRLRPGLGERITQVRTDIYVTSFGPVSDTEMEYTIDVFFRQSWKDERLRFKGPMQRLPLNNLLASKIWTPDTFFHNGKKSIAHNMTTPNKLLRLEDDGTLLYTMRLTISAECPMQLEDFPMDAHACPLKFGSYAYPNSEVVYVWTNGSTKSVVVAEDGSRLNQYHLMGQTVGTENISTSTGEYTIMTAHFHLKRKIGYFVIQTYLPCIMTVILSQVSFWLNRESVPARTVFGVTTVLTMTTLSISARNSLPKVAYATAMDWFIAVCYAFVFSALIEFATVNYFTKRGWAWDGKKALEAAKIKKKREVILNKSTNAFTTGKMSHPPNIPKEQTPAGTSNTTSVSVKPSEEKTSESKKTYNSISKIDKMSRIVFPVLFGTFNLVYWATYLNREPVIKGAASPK
# Sequence (P28472 26-473 partner): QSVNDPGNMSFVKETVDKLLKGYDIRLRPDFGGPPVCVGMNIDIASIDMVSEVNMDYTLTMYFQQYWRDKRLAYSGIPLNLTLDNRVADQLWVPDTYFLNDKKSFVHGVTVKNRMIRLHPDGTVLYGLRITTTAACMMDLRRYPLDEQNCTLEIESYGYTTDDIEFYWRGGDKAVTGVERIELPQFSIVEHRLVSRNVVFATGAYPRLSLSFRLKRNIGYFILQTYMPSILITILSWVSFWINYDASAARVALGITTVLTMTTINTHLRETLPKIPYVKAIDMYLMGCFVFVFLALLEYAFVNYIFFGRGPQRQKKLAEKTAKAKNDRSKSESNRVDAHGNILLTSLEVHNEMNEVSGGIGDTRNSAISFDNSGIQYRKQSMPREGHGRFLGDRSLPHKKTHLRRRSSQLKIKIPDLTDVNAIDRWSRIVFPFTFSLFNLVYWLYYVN
# Sequence (P18507 40-475): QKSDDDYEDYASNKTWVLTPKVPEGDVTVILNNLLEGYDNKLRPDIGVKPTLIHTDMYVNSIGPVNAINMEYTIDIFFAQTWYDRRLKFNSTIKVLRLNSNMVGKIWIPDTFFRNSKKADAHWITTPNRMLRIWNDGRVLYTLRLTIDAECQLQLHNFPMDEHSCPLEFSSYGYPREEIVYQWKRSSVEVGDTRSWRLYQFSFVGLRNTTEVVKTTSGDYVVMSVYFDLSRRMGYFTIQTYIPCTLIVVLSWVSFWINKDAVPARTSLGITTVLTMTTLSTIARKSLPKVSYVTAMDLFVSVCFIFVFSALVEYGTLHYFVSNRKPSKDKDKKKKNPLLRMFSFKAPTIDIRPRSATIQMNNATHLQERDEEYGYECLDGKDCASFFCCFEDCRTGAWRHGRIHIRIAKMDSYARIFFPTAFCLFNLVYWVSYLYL
# ASSAY_PROCEDURE: Binding assay, [3H]Ro151788 displacement on membranes of HEK cells
# MEASUREMENT_CONDITIONS: 0.5 nM [3H]Ro151788, 60 minutes at 4° C., Cheng-Prusoff; read-out: hGABAA α5 Ki
MEASURED_QUANTITY: Ki (nM)
# number only, unit nM dropped from output

Please report the measured Ki for Cc1nnn(-c2ccc(F)cc2)c1COc1ccc2c(n1)CCN(C(=O)C(C)C)C2 tested on human recombinant GABAA α5β3γ2 receptor (Homo sapiens (Human), UniProt P18507+P31644).
57

Please report the measured Ki for Cc1nnn(-c2ccc(F)cc2)c1COc1ccc2c(n1)CCN(C(=O)C1CC(=O)N(C)C1)C2 (stereo not drawn) tested on human recombinant GABAA α5β3γ2 receptor (Homo sapiens (Human), UniProt P18507+P31644).
35

Please report the measured Ki for Cc1onc(-c2ccc(F)cc2)c1COc1ccc2c(n1)CCN(C(=O)C(F)(F)F)C2 tested on human recombinant GABAA α5β3γ2 receptor (Homo sapiens (Human), UniProt P18507+P31644).
14

Please report the measured Ki for CC(=O)N1Cc2ccc(OCc3c(C)nnn3-c3ccc(Cl)cc3)nc2C1 tested on human recombinant GABAA α5β3γ2 receptor (Homo sapiens (Human), UniProt P18507+P31644).
1.2

Please report the measured Ki for Cc1onc(-c2ccc(F)cc2)c1COc1ccc2c(n1)CCN(C(=O)C1CC1)C2 tested on human recombinant GABAA α5β3γ2 receptor (Homo sapiens (Human), UniProt P18507+P31644).
7.8

Please report the measured Ki for Cc1onc(-c2ccc(F)cc2)c1COc1ccc2c(n1)CCN(C(=O)C1CCOCC1)C2 tested on human recombinant GABAA α5β3γ2 receptor (Homo sapiens (Human), UniProt P18507+P31644).
6.2

Please report the measured Ki for Cc1onc(-c2ccc(F)cc2)c1COc1ccc2c(n1)CCN(C(=O)c1ccn(C)c1)C2 tested on human recombinant GABAA α5β3γ2 receptor (Homo sapiens (Human), UniProt P18507+P31644).
11

Please report the measured Ki for Cc1nnn(-c2ccc(F)cc2)c1COc1ccc2c(n1)CCN(C(=O)C1CCOCC1)C2 tested on human recombinant GABAA α5β3γ2 receptor (Homo sapiens (Human), UniProt P18507+P31644).
43

Please report the measured Ki for Cc1nnn(-c2ccc(F)cc2)c1COc1ccc2c(n1)CCN(C(=O)N1CCCC1)C2 tested on human recombinant GABAA α5β3γ2 receptor (Homo sapiens (Human), UniProt P18507+P31644).
66

Please report the measured Ki for Cc1nnn(-c2ccc(F)cc2)c1COc1ccc2c(n1)CCN(C(=O)N1CCOCC1)C2 tested on human recombinant GABAA α5β3γ2 receptor (Homo sapiens (Human), UniProt P18507+P31644).
38

Please report the measured Ki for Cc1cc(C(=O)N2CCc3nc(OCc4c(-c5ccc(F)cc5)noc4C)ccc3C2)no1 tested on human recombinant GABAA α5β3γ2 receptor (Homo sapiens (Human), UniProt P18507+P31644).
21

Please report the measured Ki for Cc1onc(-c2ccc(F)cc2)c1COc1ccc2c(n1)CCN(C(=O)C1CCC1)C2 tested on human recombinant GABAA α5β3γ2 receptor (Homo sapiens (Human), UniProt P18507+P31644).
16

Please report the measured Ki for Cc1onc(-c2ccc(F)cc2)c1COc1ccc2c(n1)CCN(C(=O)CCS(C)(=O)=O)C2 tested on human recombinant GABAA α5β3γ2 receptor (Homo sapiens (Human), UniProt P18507+P31644).
33

Please report the measured Ki for Cn1nnc(-c2ccc(F)cc2)c1COc1ccc2c(n1)CN(C(=O)CF)C2 tested on human recombinant GABAA α5β3γ2 receptor (Homo sapiens (Human), UniProt P18507+P31644).
9.2

Please report the measured Ki for Cc1nnn(-c2ccc(F)cc2)c1COc1ccc2c(n1)CCN(C(=O)c1cccnc1)C2 tested on human recombinant GABAA α5β3γ2 receptor (Homo sapiens (Human), UniProt P18507+P31644).
24

Please report the measured Ki for Cc1onc(-c2ccc(F)cc2)c1COc1ccc2c(n1)CCN(C(=O)CS(C)(=O)=O)C2 tested on human recombinant GABAA α5β3γ2 receptor (Homo sapiens (Human), UniProt P18507+P31644).
3.7

Please report the measured Ki for Cc1onc(-c2ccc(F)cc2)c1COc1ccc2c(n1)CCN(C(=O)C1CCS(=O)(=O)CC1)C2 tested on human recombinant GABAA α5β3γ2 receptor (Homo sapiens (Human), UniProt P18507+P31644).
2.7

Please report the measured Ki for Cc1nnn(-c2ccc(F)cc2)c1COc1ccc2c(n1)CN(C(=O)c1ccncc1)C2 tested on human recombinant GABAA α5β3γ2 receptor (Homo sapiens (Human), UniProt P18507+P31644).
25

Please report the measured Ki for Cc1nnn(-c2ccc(F)cc2)c1COc1ccc2c(n1)CN(C(=O)C1CCCO1)C2 (stereo not drawn) tested on human recombinant GABAA α5β3γ2 receptor (Homo sapiens (Human), UniProt P18507+P31644).
4.8

Please report the measured Ki for Cc1nnn(-c2ccc(F)cc2)c1COc1ccc2c(n1)CCN(C(=O)N(C)C)C2 tested on human recombinant GABAA α5β3γ2 receptor (Homo sapiens (Human), UniProt P18507+P31644).
30

Please report the measured Ki for Cc1nnn(-c2ccc(F)cc2)c1COc1ccc2c(n1)CCN(C(=O)C1CCC(=O)N(C)C1)C2 (stereo not drawn) tested on human recombinant GABAA α5β3γ2 receptor (Homo sapiens (Human), UniProt P18507+P31644).
84

Please report the measured Ki for CC(=O)N1CCc2ccc(OCc3c(C)nnn3-c3ccc(F)cc3)nc2C1 tested on human recombinant GABAA α5β3γ2 receptor (Homo sapiens (Human), UniProt P18507+P31644).
112

Please report the measured Ki for Cc1nnn(-c2ccc(F)cc2)c1COc1ccc2c(n1)CN(C(=O)c1cccnc1)C2 tested on human recombinant GABAA α5β3γ2 receptor (Homo sapiens (Human), UniProt P18507+P31644).
28

Please report the measured Ki for Cc1nnn(-c2ccc(F)cc2)c1COc1ccc2c(n1)CCN(C(=O)C1CC(=O)N(C(C)C)C1)C2 (stereo not drawn) tested on human recombinant GABAA α5β3γ2 receptor (Homo sapiens (Human), UniProt P18507+P31644).
54

Please report the measured Ki for CC(=O)N1Cc2ccc(OCc3c(C)nnn3-c3ccc(F)cc3)nc2C1 tested on human recombinant GABAA α5β3γ2 receptor (Homo sapiens (Human), UniProt P18507+P31644).
3.2

Please report the measured Ki for Cc1nnn(-c2ccc(F)cc2)c1COc1ccc2c(n1)CCN(C(=O)[C@H]1CCOC1)C2 tested on human recombinant GABAA α5β3γ2 receptor (Homo sapiens (Human), UniProt P18507+P31644).
50

Please report the measured Ki for Cc1nnn(-c2ccc(F)cc2)c1COc1ccc2c(n1)CN(C(=O)C(C)(C)C)C2 tested on human recombinant GABAA α5β3γ2 receptor (Homo sapiens (Human), UniProt P18507+P31644).
31

Please report the measured Ki for Cc1nnn(-c2ccc(F)cc2)c1COc1ccc2c(n1)CCN(C(=O)c1ccc(C(F)(F)F)nc1)C2 tested on human recombinant GABAA α5β3γ2 receptor (Homo sapiens (Human), UniProt P18507+P31644).
69

Please report the measured Ki for CCC(=O)N1Cc2ccc(OCc3c(-c4ccc(F)cc4)nnn3C)nc2C1 tested on human recombinant GABAA α5β3γ2 receptor (Homo sapiens (Human), UniProt P18507+P31644).
25

Please report the measured Ki for CCC(=O)N1CCc2nc(OCc3c(C)nnn3-c3ccc(F)cc3)ccc2C1 tested on human recombinant GABAA α5β3γ2 receptor (Homo sapiens (Human), UniProt P18507+P31644).
46

Please report the measured Ki for Cc1nnn(-c2ccc(F)cc2)c1COc1ccc2c(n1)CCN(C(=O)[C@H]1CCC(=O)N1C)C2 tested on human recombinant GABAA α5β3γ2 receptor (Homo sapiens (Human), UniProt P18507+P31644).
67

Please report the measured Ki for Cn1nnc(-c2ccc(F)cc2)c1COc1ccc2c(n1)CN(C(=O)C1CCOC1)C2 (stereo not drawn) tested on human recombinant GABAA α5β3γ2 receptor (Homo sapiens (Human), UniProt P18507+P31644).
56

Please report the measured Ki for Cc1nnn(-c2ccc(F)cc2)c1COc1ccc2c(n1)CN(C(=O)C1CCOCC1)C2 tested on human recombinant GABAA α5β3γ2 receptor (Homo sapiens (Human), UniProt P18507+P31644).
13
